Task for the reader: assign each of the following compounds its reported activity at 20 min, 10 µM.
ASSAYED_TARGET: CYP2C9 (Homo sapiens)
Sequence (P11712 whole entry): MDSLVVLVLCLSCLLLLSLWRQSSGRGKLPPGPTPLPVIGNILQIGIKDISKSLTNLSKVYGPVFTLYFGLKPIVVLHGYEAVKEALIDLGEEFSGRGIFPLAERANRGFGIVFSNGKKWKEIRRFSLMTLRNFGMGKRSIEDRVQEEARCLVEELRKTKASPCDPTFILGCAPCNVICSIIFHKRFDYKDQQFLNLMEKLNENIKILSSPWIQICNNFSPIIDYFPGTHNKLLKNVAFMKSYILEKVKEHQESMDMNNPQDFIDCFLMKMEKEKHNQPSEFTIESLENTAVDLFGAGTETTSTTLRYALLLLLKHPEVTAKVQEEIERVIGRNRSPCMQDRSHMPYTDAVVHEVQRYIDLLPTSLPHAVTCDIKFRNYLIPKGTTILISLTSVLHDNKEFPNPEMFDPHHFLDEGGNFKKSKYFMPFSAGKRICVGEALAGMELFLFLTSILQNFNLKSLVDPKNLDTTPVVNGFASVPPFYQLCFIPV
PROTOCOL_TEXT: Inhibition of human CYP2C9 assessed as remaining enzyme activity at 10 uM preincubated for 5 mins followed by Vivid CYP substrate addition measured after 20 mins by fluorescence assay relative to control
Type: ADME
STATED_CONDITIONS: probe Vivid CYP substrate, read-out: Activity
Give bare numbers, in %.

1. CCc1nnc(SCC(=O)Nc2ccc(OC)c(OC)c2)c2cc3sc(C)cc3n12	50

For each of the items listed, what is its activity at 20 min, 10 µM?
1. CCN(Cc1ccccc1)C(=O)CSc1nnc(C)n2c1cc1sc(C)cc12
2. CCc1nnc(SCC(=O)N(C)c2ccccc2)c2cc3sccc3n12
3. CCc1nnc(SCC(=O)Nc2ccccc2)c2cc3sc(C)cc3n12

1: 21.1; 2: 70.5; 3: 95.9

For each of the items listed, what is its activity at 20 min, 10 µM?
1. CCc1nnc(SCC(=O)N(C)c2ccccc2)c2cc3sc(C)cc3n12
2. CCc1nnc(SCC(=O)N2CCN(c3ccccc3)CC2)c2cc3sc(C)cc3n12
3. Cc1nnc(SCC(=O)N(C)c2ccccc2)c2cc3sccc3n12

1. 64.8
2. 38.8
3. 124

* * *

PROTOCOL_TEXT: Stability in human plasma assessed as parent compound remaining at 10 uM after 120 mins by LC-MS/MS analysis
Type: ADME, cell-free
STATED_CONDITIONS: read-out: Stability
REPORTED_METRIC: remaining at 2 h, 10 µM (%)
One number for each entry, in %.

1) CCc1nnc(SCC(=O)N(C)c2ccccc2)c2cc3sc(C)cc3n12	93.6

Please look at the following compound next.
Per the record, CCc1nnc(SCC(=O)N(C)c2ccccc2)c2cc3sccc3n12 has remaining at 2 h, 10 µM of 96.8

* * *

PROTOCOL_TEXT: Stability in rat plasma assessed as parent compound remaining at 10 uM after 30 mins by LC-MS/MS analysis
Assay type: ADME, cell-free
STATED_CONDITIONS: read-out: Stability
Task for the reader: assign each of the following molecules its reported remaining at 0.5 h, 10 µM.

For each of the items listed, what is its remaining at 0.5 h, 10 µM?
1. CCc1nnc(SCC(=O)N(C)c2ccccc2)c2cc3sccc3n12
2. CCc1nnc(SCC(=O)N(C)c2ccccc2)c2cc3sc(C)cc3n12

["94%", "96.6%"]

* * *

ASSAYED_TARGET: Translocator protein (Rattus norvegicus, UniProt P16257)
Sequence (P16257 whole entry, looked up): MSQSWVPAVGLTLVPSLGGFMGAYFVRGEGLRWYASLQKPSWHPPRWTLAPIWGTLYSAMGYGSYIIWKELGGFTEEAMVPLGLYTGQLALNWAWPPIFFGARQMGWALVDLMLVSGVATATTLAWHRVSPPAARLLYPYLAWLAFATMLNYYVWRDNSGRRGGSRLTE
PROTOCOL_TEXT: Displacement of [3H]PK11195 from TSPO in Sprague-Dawley rat cerebral cortex membranes after 60 mins by liquid scintillation counting analysis
Set-up: species or system Membrane
REPORTED_METRIC: pIC50
Answers are plain numbers, as −log10 of the molar value.

Below, 3 molecules whose answers are already recorded.
1) CCc1nnc(SCC(=O)N2CCN(c3ccccc3)CC2)c2cc3sc(C)cc3n12	5.65
2) CCc1nnc(SCC(=O)N(C)c2ccccc2)c2cc3sccc3n12	7.61
3) CCc1nnc(SCC(=O)Nc2ccccc2)c2cc3sc(C)cc3n12	5.78

Per the record, CCN(Cc1ccccc1)C(=O)CSc1nnc(C)n2c1cc1sc(C)cc12 has pIC50 of 6.91
